- Assay system: Matrix-associated proTGFb1 (hLTBP1, hLTBP3)
- Protocol: BLI (OCTET), average over matrix-associated complexes
- Assay type: binding, human
- Settings: average KD of (B) and (C), read-out: (D) ECM AVRG
Parameter: Kd (pM)
# number only, unit pM dropped from output

Input Ab33: proTGFβ1 antibody; VH SEQ ID NO: 141, VL SEQ ID NO: 15 (antibody, V domains shown) VH: EVQLVESGGGLVQPGGSLRLSCAASGFTFSSFSMNWVRQAPGKGLEWVSYISPSADTIYYADSVKGRFTISRDNAKNTLYLQMNSLRAEDTAVYYCAHGVLDYGDMLDPWGQGTLVTVSS VL: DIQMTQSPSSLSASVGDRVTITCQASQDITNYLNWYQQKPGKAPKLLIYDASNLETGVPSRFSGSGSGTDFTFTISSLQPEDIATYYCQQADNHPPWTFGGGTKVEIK . Output Kd: 145

What the record says about Ab26: proTGFβ1 antibody; VH SEQ ID NO: 134, VL SEQ ID NO: 15 (antibody, V domains shown) VH: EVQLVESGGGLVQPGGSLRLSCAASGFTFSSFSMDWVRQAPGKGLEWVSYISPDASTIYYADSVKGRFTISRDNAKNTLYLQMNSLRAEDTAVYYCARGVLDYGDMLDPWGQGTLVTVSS VL: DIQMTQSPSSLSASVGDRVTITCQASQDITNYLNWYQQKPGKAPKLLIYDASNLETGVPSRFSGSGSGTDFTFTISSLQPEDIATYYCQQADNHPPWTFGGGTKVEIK : Kd is 197
